Assign pEC50 to each entry below.
System: Human immunodeficiency virus 1
Assay remarks: Antiviral activity against HIV1
Format: functional, organism-based
Give bare numbers, as −log10 of the molar value.

Example results:
>>> df
                                   compound                    study_system  reported
0  CCCCC12CC1(CO)C(=O)Nc1ccc(Cl)cc12 (stereo unspecified)  Human immunodeficiency virus 1      6.13
1  CCCCC12CC1(C(=O)OC)C(=O)Nc1ccc(Cl)cc12 (stereo unspecified)  Human immunodeficiency virus 1      9.00
2  CCCCC12CC1(C(N)=O)C(=O)Nc1ccc(Cl)cc12 (stereo unspecified)  Human immunodeficiency virus 1      7.92
3  C=CCNC(=O)C12CC1(CCCC)c1cc(Cl)ccc1NC2=O (stereo unspecified)  Human immunodeficiency virus 1      6.31
4  CCCCC12CC1(C(=O)CCC)C(=O)Nc1ccc(Cl)cc12 (stereo unspecified)  Human immunodeficiency virus 1      6.58

Below are some compounds; for each one, tell me its pEC50.
1. CCOC(=O)C12CC1(CC(C)C)c1cc(Cl)ccc1NC2=O (stereo unspecified)
2. CCCCC12CC1(C(=O)Oc1ccc(C#N)cc1)C(=O)Nc1ccc(Cl)cc12 (stereo unspecified)

### Response
1: 7.24; 2: 5.96

### Prompt // pEC50 lookup, key: C=CCOCC12CC1(CCCC)c1cc(Cl)ccc1NC2=O (stereo unspecified)
### Response 6.62
